# assayText: yeast display, Sf9 membrane polyspecificity reagent, FACS + sequencing; frameworks hold sequencing errors
propertyName: polyreactivity (PSR sort gate)

The examples below pair each entry with its known result.
QVQLVESGGGLVQAGGSLRLSCAASGSIFGNKAMGWYRQAPGKERELVAASSNDGDNSYYADSVKGRFTISRDKAKNTVYLQMNSLKPEDTAVYYCAADYVGVTSVRYDYWGQGTEVTVSS | low polyreactivity
QVQLVESGGGLVQAGGSLRLSCAASGRTFRYNAMGWYRQAPGKERELVAAISRSGGRTYYADSVKGRFTISRDNAKNTVYLQMNSLKPEDTAVYYCAAYYYTAGDSSSRYDYWGQGTQVTVSS | high polyreactivity
QVQLVESGGGLVQAGGSLTLSCAASGSTFDYNVMGWYRQAPGKERELVAAISNAGTTNYADSVKGRFTISRDNAKNTVYLLMNSLKPEDTAVYYCAADLGYYAAVTKYAEYDYWGQGTQVTVSS | low polyreactivity
QVQLVESGGGLVQAGGSLRLSCAASGNIFYYYAMGWYRQAPGKERELVADITSGGDTDYADSVKGRFTISRDNAKNTVYLQMNSLKPEDTAVYYCNAQYYFHVTYDYWGQGTQVTVSS | low polyreactivity
QVQLVESGGGLVQAGGSLRLSWAASGFTFTSYTMGWYTPAPGKERELVAAISNTGGSTYYADSVKGRFTISRDNAKNTVYLQMNSLKPEDTAVYYCAARTHTYGKFWRYYWGQGTQVTVSS | low polyreactivity
QVQLVDSGGGLVQAGGSLRLSCAASGRIFRGYAMGWYRQAPGKERELVAAITSGGITNYADSVKGRFTISRDNAKNTVYLQMNRLKPEDTAVYYCNTRRGWRDFDYWGQGTQVTVSS | low polyreactivity
QVQLVDSGGGLVQAGGSLRLSCAASGSTFPIYAMEWYRQAPGKERELVAAISSGGSTYYADSVKGRFTISRDNAKNTVYLQMNSLKPEDTAVYYCAADYSQPNFEYYYWGQGTQVTVSS | low polyreactivity
QVQLVESGGGLVQAGGSLRLSCAASGSIFISYAMGWYRQAPGKERELVAAISSGGSTNYADSVKGRFTISRDNAKNTVYLQMNSLKPEDTAVYYCAADGWLWSFTGDGWWFVYWGQGTQVTVSS | low polyreactivity
QVQLVESGGGLVQAGGSLRLSCAASGFTLYRYAMGWYIQAPGKERELVAAISKRGASSYYADSVKGRFTISRDNAKNTVYLQMNSLKPEDTAVYYCAATISRAYKPVKGHYYLGMDYWGQGTQVTVSS | high polyreactivity
QVQLVESGGGLVQAGGSLRLSCADTGLILVLNAMGCYRQAPGKERELVADITSGGSTYYADSVKGRFTISRDNAKNSVYLQMNSLKPEDTAVYYCATDQGGYYENDYWGQGTKVTVSS | low polyreactivity

The record that follows has no polyreactivity (PSR sort gate) shown yet.
input: Could you tell me which polyreactivity (PSR sort gate) is on file for QVQLVESGGGLVQAGGSLRLSCAASGITFIYYAMGWYRQAPGKEREFVAAISSRDDSTYYADSVKGRFTISRDNAKNTVYLQMNSLKPEDTAVYYCAAASSRRSAIKYGYWGQGTQVTVSS ?
output: high polyreactivity

====

# assayText: yeast display, Sf9 membrane polyspecificity reagent, FACS + sequencing; frameworks hold sequencing errors
propertyName: polyreactivity (PSR sort gate)

As a guide, the following entries are already answered.
QVQLVESGGCLVQAGGSLRLSCAASGGIFPGNAMGWYRQAPGKERELVATISYSGGSTYYADSVKGRFTISRDNAKNTVYLQMNSLKPEDTAVYYCAARGYKPTRSRRTEYGYWGQGTQVTVSS | high polyreactivity
QVQLVESGGGLVQAGGSLRLSCAASGYIFKYYAMGWYRQAPGKERELVAAISRSGGSTYYADSVKGRFTISRDNAKNTVYLQMNSLNPEDTAVYYCAADSYYYQGYRRYNYDYWGQGTQVTVSS | high polyreactivity
QVQLVESGGGLVQAGGSLRLSCAASGSIFYAYAMGWYRQAPGKEREFVAVISRGGITNYADSVKGRFTISRDNAKNTVYLQMNSLKPEDTAVYYCAAATSAWGYLRRYGYWGQGTQVTVSS | low polyreactivity
QVQLVESGGGLVQAGGRLRLSCAASGRIFWTYAMGWYRQAPGKERELVAAISSGGSTNYADSVKGRFTISRDNAKNTVYLQMNSLKPEDTAVYYCAADRWYREYDYWGQGTQVTVSS | low polyreactivity

Now for a further sequence.
input: Quick one: polyreactivity (PSR sort gate) for QVQVLESGGGLVQAGGSLRLSCAASGSIFDFYAMGWYRQAPGKDRELVAAISYRGGSTYADSVKGRFTISRDNAKNTVYLQMNSLKPEDTAVYYCAKVPDYRFEYWGQGTQVTVSS ?
output: high polyreactivity

====

# assayText: yeast display, Sf9 membrane polyspecificity reagent, FACS + sequencing; frameworks hold sequencing errors
propertyName: polyreactivity (PSR sort gate)

QVQHVESGGGLVQAGGSLSLSCAASGRTILWNAMGWYRQAPGKERELVAAITSGGRTYYADSVKGRFTISRDNAKNTVYLQMNSLIPEDTAVYYCAASTVYWSTVNSQARFNYWGQGTQVTVSS | high polyreactivity
QVQLVESGGGLVQAGGSLRLSCAASGGTFYYYAMGWYRQAPGKEREFVAAITWTGGRTYYADSVKGRFTISRDNAKNTVYLQMNSLKPEDTAVYYCAASDRYGGRDYWGQGTQVTVSS | high polyreactivity
QVQLVESGGGLVQAGGSLRLSCAASGLILKNYAMGWYRQAPWKERELVAAITRSGGSTYYADSVKGRFTISRDNAKNTVYLQMNSLKPEDTAVYYCAARNPSGKGRYDYRGQGTQVTVSS | high polyreactivity
QVQLVESGGGLVQAGGSLRLSCAASGLIFWAYAMGWYRQAPGKERELVAGISVSGGSTYYADSVKGRFTISRDNAKNTVYLQMNSLKPEDTAVYYCAARLPRTRYWDDYWGQGTQVTVSS | high polyreactivity
QVQLVESGGGLVQAGGSLRLSCAASGRIFRRYAMGWYRQAPGKERELVATISRGGSNTSYADSVKGRFTISRDNAKNTVYLQMNSLKPEDSAVYYCAKGSVRYYVGFDYWGQGTQVTVSS | high polyreactivity

Hi team, please reply with polyreactivity (PSR sort gate) for each item in this list.
1. QVQLVESGGGLVQAGGSLLLSCAASGSIFYNYAMGWYRQAPGKERELVAAISQSGGSTRYADSVKGRFTISRDNAKNTVYLQMNSLKPEDTAVYYCAASRRKGQGSAGFGYWGQGTQVTVSS
2. QLQLVESGGGLVQAGGRLRLSCASSGSTFHSYVMGWYRPAPGKERELVAAITSRGGSTNYADSVKGRFTISRENAKNTVYLHMNSLKPEDTAVYYCAADGYWGWSYFRYDYLGQGTQVTVSS
3. QVQLVESGGGLVQAGGCLRLSCDASGFTFAFYAMGWYRQAPGKEIELVAAISRRGGSTTYADSVKGRFTISRDNAKNTVYLQMHSLKPEDTAVYYCNAVSTRNPGPDSYYWGQGTQVTVSS
4. QVQLVESGGGLVQAGGSLRLSCAASGFTFQEYAMGWYRQAPGKERELVAVISSSGVRTYYADSVKGRFTISRDNAKNTVYLQMNSLKPEDTAVYYCAARRYHYIPSTKGNYWGQGTQVTVSS

output:
["high polyreactivity", "low polyreactivity", "high polyreactivity", "high polyreactivity"]

Report polyreactivity (PSR sort gate) for every entry below.
1. QVQLVESGGGLVQAGGSLRLSCAASGSIFYVNAMGWYRQAPGKERELVASITASGGTTYYADSVKGRFTISRDNAKNTVYLQMNSLKPEDTAVYYCAATFIQVVVNVQLYDYDYWGQGTQVTVSS
2. QVQLVESGGGLVQAGGSLRLSCAASGFTIRWYAMGWYRQAPGKERELVAAISSGGGSTYYADSVKGRFTISRDNAKNTVYLQMNSLKPEDTAVYYCNARIQYFEYRGYEYWGQGTQVTVSS

output:
["low polyreactivity", "high polyreactivity"]

====

# assayText: yeast display, Sf9 membrane polyspecificity reagent, FACS + sequencing; frameworks hold sequencing errors
propertyName: polyreactivity (PSR sort gate)

Please review the following examples before continuing.
QVQLVESGGGLVQAGGSLRLSCAASARTLAHYTMGWYRQAPGKERELVAAITFSGGRTYYADSVKGRFTISRDTAKNTVYLQMNSLKPEDTAVYYCNADGYWVVPLDDSYEYWGQGTQVTVSS | low polyreactivity
QVQLVESGGGLVQAGGSLRLTCAASGSIFEYNGMGWYRQAPGKERELVAAITTTGTTDYADSVKGRFTISRDNAKNTVYLQMNSLKPEDTAVDYCAAEYTYYYTGEYDYWGQGTQVTVSS | low polyreactivity
QVQLVESGRGLVQAGGSLRLSCADSGYIFWYYAMGWYRQAPGKERELVATITVSAGTTYFADSVKGRFTISRDNAKNTVYLQMNSLKPEDTAVYYCNKRSALSFVYDFDYWGQGTQVTVSS | low polyreactivity
QVQLVESGGGLVQAGGSLRLSCAASGRIFAVNAMGLYRQAPGKERELVARIRRIGGSTYYADSVKGRFTISRDNAKNTVYLQMNSQKPEDTAVYYCAAVSRVWLNLYNYWGQGTQVTVSS | high polyreactivity
QVQLVESGGGLVQAGGSLRLSCAASGITFSSYAMGWSRQAPGKERELVAAISSGGSTYYADSVKGRFTISRDNAKNTVYLQMNSLKPEDTAVYYCRPLVTLDWYKFGYWGQGTQVTVSS | low polyreactivity

// each sequence listed below needs its polyreactivity (PSR sort gate)
1. QVQLVESGGGLVQAGGTLRLSCAASGITLKLYVMGWYRQAPGKERELVAAISRRGGSTYYADSVKGRFTLSRDNAKYTVYLQMISLKPEDTAVYYCAKDGTQYERKDPAYGYWGQGTQVTVSS
2. QVQLGDSGGGLGQAGGSLRLSCAASGSTFASDTMGWYRQEPGKERYLVATISRPGGTTNYADSVKGRFTISRDNAKNTVYLQMNSLKPEDTAVFDCARRYPRYDFAYGYDYWGQGTQGTVSS
3. QVQLVESGGGLVQAGGSLRLSCAASGFTFNRNAMGWYRQAPGKERELVAAITKRGGSTFYADSVKGRFTISRDNAKNTVYLQMNSLKPEDTAVYYCAASVATYFPRHYDYWGQGTQVTVSS
4. QVQLVESGGGLVQAGGSRRLSCAASGSTFRINAMGWYRQAPGKERELVADINSGGNTTYADSVKGRFTISRDNAKNTVYLQMNSLKPEDTAVYYCAADPVFDLWEFLLDYGYDYWGQGTQVTVSS
5. QVQLVESGGGLVQAGGSLRLSCAASGRTFVVYAMGWYRQAPGKERELVAGSGSTFYADSVKGRFTISPDNAKNTVYLQMNSLKPEDTAVYYCAADHPALYSLDWDTAYDYWGQGTQVTVSS
6. QVQLVESGGGLVQAGGSLRLSCAASGRIFSIYAMGWYRQAPGKERELVAAITRGGRTNYADSVKGRFTISRDNAKNTVYLQMNSLKPEDTAVYYCAARRIDGVVKPYDYWGQGTQVTVSS

output:
high polyreactivity
high polyreactivity
high polyreactivity
low polyreactivity
low polyreactivity
low polyreactivity

These measurements were taken from the nanobody polyreactivity screen of Harvey et al. (2022).
